Where do the numbers come from? From the PETadex activity labels (doi:10.1038/s41586-022-04599-z).

Substrate: PET
protocol-summary: Proxy for plastic degradation [Released monomer concentration (HPLC/LC-MS) (MHET+TPA)]
protocol-conditions: pH 6.5; 30 °C; part of the chain shown
The proteins listed here are annotated with their Proxy for plastic degradation.

protein	Proxy for plastic degradation, mM
unnamed (protein) QTNPYARGPNPTAASLEASAGPFTVRSFTVSRPSGYGAGTVYYPTNAGGTVGAIAIVPGYTARQSSIKWWGPRLASHGFVVITIDTNSTLDQPESRSSQQMAALRQVASLNGTSSSPIYGKVDTARMGVMGWSMGGGGSLISAANNPSLKAAAPQAPWHSSTNFSSVTVPTLIFACENDSIAPVNSSALPIYDSMSQNAKQFLEIKGGSHSCANSGNSNQALIGKKGVAWMKRFMDNDTRYSTFACENPNSTAVSDFRTANCSLEHHHHHH	0.7
unnamed (protein) QTNPYARGPNPTAASLEASAGPFTVRSFTVSRPSGYGAGTVYYPTNAGGTVGAIAIVPGYTARQSSIKWWGPRLASHGFVVITIDTNSTFDYPSSRSSQQMAALRQVASLNGDSSSPIYGKVDTARMGVMGHSMGGGASLRSAANNPSLKAAIPQAPWDSQTNFSSVTVPTLIFACENDSIAPVNSHALPIYDSMSRNAKQFLEINGGSHSCANSGNSNQALIGKKGVAWMKRFMDNDTRYSTFACENPNSTAVSDFRTANCSLEHHHHHH	0.15
unnamed (protein) QTNPYARGPNPTAASLEASAGPFTVRSFTVSRPSGYGAGTVYYPTNAGGTVGAIAIVPGYTARQSSIKWWGPRLASHGFVVITIDTNSTLDQPESRSSQQMAALRQVASLNGTSSSPIYGKVDTARMGVMGWSMGGGGSLISAANNPSLKAAAPQAPWHSSTNFSSVTVPTLIFACENDSIAPVNSSALPIYDSMSRNAKQFLEINGGSHSCANSGNSNQALIGKKGVAWMKRFMDNDTRYSTFACENPNSTAVSDFRTANCSLEHHHHHH	0.6
unnamed (protein) QTNPYARGPNPTAASLEASAGPFTVRSFTVSRPSGYGAGTVYYPTNAGGTVGAIAIVPGYTARQSSIKWWGPRLASHGFVVITIDTNSTLDQPSSRSSQQMAALRQVASLNGTSSSPIYGKVDTARMGVMGWSMGGGGSLISAANNPSLKAAAPQAPWDSSTNFSSVTVPTLIFACENDSIAPVNSSALPIYDSMSRNAKQFLEINGGSHSCANSGNSNQALIGKKGVAWMKRFMDNDTRYSTFACENPNSTRVSDFRTANCSLEHHHHHH	0.1
